Assay: Clinical pharmacokinetics study in healthy volunteers, IV bolus + 1-step infusion
Type: in vivo, human
Details: both sexes, human, plasma, intravenous, bolus 1.8 μg/kg, infusion 3 μg/kg/hr for 12 hours; read-out: AOL plasma concentration Cmax
assay-endpoint: Cmax (ng/mL)
Answers are plain numbers, in ng/mL.

(Q) Would you kindly share the measured Cmax for COc1ccc(-c2cc(=S)ss2)cc1 ?
(A) 1.94

---

Experiment: Clinical pharmacokinetics study in healthy volunteers, IV bolus + 1-step infusion
Type: in vivo, human
Details: both sexes, human, plasma, iv, bolus 0.3 μg/kg, infusion 0.4 μg/kg/hr for 12 hours; read-out: AOL plasma concentration End of 12-hour infusion (IV)
Source text: The concentration of AOL in the subject's plasma can be measured by means and methods well known to the skilled artisan, such as liquid chromatography-mass spectrometry (LC/MS) or any other suitable means or method. […] Immediately after centrifugation, the plasma sample can be analyzed to assess the concentration of AOL by liquid chromatography-mass spectrometry (LC/MS). […]
assay-endpoint: concentration at 12 hours

(Q) // concentration at 12 hours lookup, key: COc1ccc(-c2cc(=S)ss2)cc1 [AOL, 5-(4-methoxyphenyl)dithiole-3-thione]
(A) ~0.1 ng/mL
